biological target: HLA-A*0206 (human); assay: competition with 125I standard peptide for purified HLA; gel filtration
Readout label: IC50 (nM)

Binder	Measurement unit	IC50
LTFFWLDRSV (modifications not checked) [Peptide 1418.23 … (PAP.21.T2)]	nM	43

P. SLSLGFLFLV (modifications not checked) [Peptide 1419.52 … (PAP.13.V10)]
Q. LVCNGVLQGV (modifications not checked) [Peptide 1418.55 … (HuK2.217.V10)]
input: Could you determine which record has the numerically smaller IC50? Candidates: P and Q // caller expects the label of the chosen entry
output: Q
(Q: 5.6 nM, P: 42 nM)
